Ref: patent US8846628B2

assay.notes: Rapid Aza Clinical Evaluation (RACE) study CL008: plasma PK
Format: in vivo
condition.parameters: human, sc, 75 mg/m^2, one subject (Formulation 6 cohort), SC 75 mg/m^2 (120 mg), day 1
experimental.readout: AUC(0-inf) (ng·h/mL)

| smiles.entry | recorded.value |
| --- | --- |
| Nc1ncn([C@@H]2O[C@H](CO)[C@@H](O)[C@H]2O)c(=O)n1 | 1720 |

###

assay.notes: Rapid Aza Clinical Evaluation (RACE) study CL008: plasma PK
Format: in vivo
condition.parameters: human, 75 mg/m^2, one subject (Formulation 6 cohort), following SC dosing, read-out: AUC (rounded)

| compound | AUC |
| --- | --- |
| Nc1ncn([C@@H]2O[C@H](CO)[C@@H](O)[C@H]2O)c(=O)n1 [azacitidine] | ~1700 ng·h/mL |

###

assay.notes: clinical
condition.parameters: human, in vivo, sc, 75 mg/m2, AUC(0-inf)
experimental.readout: AUC(0-inf) (ng·h/mL)

| smiles.entry | experimental.readout | recorded.value |
| --- | --- | --- |
| Nc1ncn([C@@H]2O[C@H](CO)[C@@H](O)[C@H]2O)c(=O)n1 | AUC(0-inf) | 1210 |

###

assay.notes: Rapid Aza Clinical Evaluation (RACE) study CL008: plasma PK
Type: in vivo
condition.parameters: human, sc, 75 mg/m^2, one subject (Formulation 6 cohort), SC 75 mg/m^2 (120 mg), day 15

| smiles.entry | AUC(0-inf) (ng·h/mL) |
| --- | --- |
| Nc1ncn([C@@H]2O[C@H](CO)[C@@H](O)[C@H]2O)c(=O)n1 | 1640 |

###

assay.notes: clinical
condition.parameters: human, in vivo, po, 180 mg
experimental.readout: bioavailability (%)

| smiles.entry | experimental.readout | readout.unit | recorded.value |
| --- | --- | --- | --- |
| Nc1ncn([C@@H]2O[C@H](CO)[C@@H](O)[C@H]2O)c(=O)n1 | bioavailability | % | 30 |

###

assay.notes: clinical
condition.parameters: human, in vivo, sc, 75 mg/m2, Cmax

| smiles.entry | Cmax (ng/mL) |
| --- | --- |
| Nc1ncn([C@@H]2O[C@H](CO)[C@@H](O)[C@H]2O)c(=O)n1 | 697 |

###

assay.notes: Rapid Aza Clinical Evaluation (RACE) study CL008: plasma PK
Format: in vivo
condition.parameters: human, sc, 75 mg/m^2, one subject (Formulation 4 cohort), SC 75 mg/m^2 (124 mg), day 15

| smiles.entry | AUC(0-t), ng·h/mL |
| --- | --- |
| Nc1ncn([C@@H]2O[C@H](CO)[C@@H](O)[C@H]2O)c(=O)n1 | 2440 |
